Where these numbers come from: patent US20260062426A1

Molecular target: CDK2 (Homo sapiens)
Construct: host or cells: HEK293
Experiment: CDK2 HIBIT PQ (protein quantification), degradation
Format: cell-based
Conditions: PQ = Protein Quantification
reported property: DC50 (nM)
Output spec: scalar in nM, unitless text.

Request: Look up and report DC50, with CDK2 (Homo sapiens) as system, for CC(C)Oc1c(-c2cn[nH]c2)ncn2nc(Nc3ccc(S(=O)(=O)c4cccc(C(C)N5CCN(c6ccc7c(N8CCC(=O)NC8=O)nn(C)c7c6)CC5)c4)cc3F)nc12 (single isomer, unassigned) [Compound 98]
Response: 2.3

Request: Look up and report DC50, with CDK2 (Homo sapiens) as system, for CC(C)Oc1c(-c2cn[nH]c2)ncn2nc(Nc3ccc(S(=O)(=O)c4cccc(C(C)N5CCN(c6ccc7c(N8CCC(=O)NC8=O)nn(C)c7c6)CC5)c4)cc3F)nc12 (single isomer, unassigned) [Compound 99]
Response: 3

Request: Look up and report DC50, with CDK2 (Homo sapiens) as system, for CC(C)Oc1c(-c2cn[nH]c2)ncn2nc(Nc3ccc(S(=O)(=O)N4CCC[C@H](CN5CC[C@@H](c6ccc7c(N8CCC(=O)NC8=O)nn(C)c7c6)CC5(C)C)C4)cc3F)nc12 (single isomer, unassigned) [Compound 96]
Response: 1

Request: Look up and report DC50, with CDK2 (Homo sapiens) as system, for CC(C)Oc1c(-c2cn[nH]c2)ncn2nc(Nc3ccc(S(=O)(=O)N4CC5(CCCN(CC6CCN(c7cccc8c7n(C)c(=O)n8C7CCC(=O)NC7=O)CC6)C5)C4)cc3F)nc12 (racemic)
Response: 5.8

Request: Look up and report DC50, with CDK2 (Homo sapiens) as system, for CC(C)Oc1c(-c2cn[nH]c2)ncn2nc(Nc3ccc(S(=O)(=O)N(C)CCCN4C5CCC4CN(c4ccc6c(c4)n(C)c(=O)n6C4CCC(=O)NC4=O)C5)cc3F)nc12 (centres unmarked)
Response: 0.1

----------
For each entry below, report its CCNE1 HIBIT PQ Max (%) value.
Target: CCNE1 (Homo sapiens, UniProt P24864+P24941)
Construct: host or cells: HEK293
Experiment: CCNE1 HIBIT PQ (protein quantification), degradation
Type: cell-based
Conditions: Max = Maximum
Output spec: scalar in %, unitless text.

Request: Read off the recorded CCNE1 HIBIT PQ Max (%) for CC(C)Oc1c(-c2cn[nH]c2)ncn2nc(Nc3ccc(S(=O)(=O)N4CCCC(CN5CCC(c6ccc7c(N8CCC(=O)NC8=O)nn(C)c7c6)CC5)C4)cc3F)nc12 (single isomer, unassigned) [Compound 94]
Response: 89

Request: Read off the recorded CCNE1 HIBIT PQ Max (%) for CC(C)Oc1c(-c2cn[nH]c2)ncn2nc(Nc3ccc(S(=O)(=O)N(C)CCCN4CCC(c5ccc6c(c5)n(C)c(=O)n6[C@H]5CCC(=O)NC5=O)CC4)cc3F)nc12 (racemic)
Response: 79

Request: Read off the recorded CCNE1 HIBIT PQ Max (%) for CC(C)Oc1c(-c2cn[nH]c2)ncn2nc(Nc3ccc(S(=O)(=O)c4cccc(OC5CN(C6CCN(c7ccc8c(c7)CN(C7CCC(=O)NC7=O)C8=O)CC6)C5)c4)cc3F)nc12 (racemic)
Response: 42

Request: Read off the recorded CCNE1 HIBIT PQ Max (%) for CC(C)Oc1c(-c2cn[nH]c2)ncn2nc(Nc3ccc(S(=O)(=O)N(C)CCCN4C5CCC4CN(c4ccc6c(c4)n(C)c(=O)n6C4CCC(=O)NC4=O)C5)cc3F)nc12 (centres unmarked)
Response: 67

Request: Read off the recorded CCNE1 HIBIT PQ Max (%) for CC(C)Oc1c(-c2cn[nH]c2)ncn2nc(Nc3ccc(S(=O)(=O)c4cccc(N5CCC(CN6CCN(c7ccc8c(c7)CN(C7CCC(=O)NC7=O)C8=O)CC6)CC5)c4)cc3F)nc12 (racemic)
Response: 71

----------
For each entry below, report its CCNE1 HIBIT PQ Max (%) value.
Biological target: CCNE1 (Homo sapiens, UniProt P24864+P24941)
Construct: host or cells: HEK293
Assay: CCNE1 HIBIT PQ (protein quantification), degradation
Type: cell-based
Conditions: Max = Maximum
Output spec: scalar in %, unitless text.

Request: Read off the recorded CCNE1 HIBIT PQ Max (%) for CC(C)Oc1c(-c2cn[nH]c2)ncn2nc(Nc3ccc(S(=O)(=O)N(C)CCCN4C5CC4CN(c4ccc6c(c4)n(C)c(=O)n6C4CCC(=O)NC4=O)C5)cc3F)nc12 (stereo not drawn)
Response: 20

Request: Read off the recorded CCNE1 HIBIT PQ Max (%) for CC(C)Oc1c(-c2cn[nH]c2)ncn2nc(Nc3ccc(S(=O)(=O)N4CCC(CN5CCC(c6cccc7c6n(C)c(=O)n7C6CCC(=O)NC6=O)CC5)CC4)cc3F)nc12 (racemic)
Response: 33

Request: Read off the recorded CCNE1 HIBIT PQ Max (%) for CC(C)Oc1c(-c2cn[nH]c2)ncn2nc(Nc3ccc(S(=O)(=O)N(C)CCCN4CCC(c5ccc6c(c5)n(C)c(=O)n6C5CCC(=O)NC5=O)CC4)c4cnccc34)nc12 (racemic)
Response: 72

----------
Target: CDK2 (Homo sapiens, UniProt P24941)
Construct: host or cells: HEK293
Assay: CDK2 HIBIT PQ (protein quantification), degradation
Format: cell-based
Conditions: Max = Maximum
For each entry below, report its CDK2 HIBIT PQ Max (%) value.

Request: Look up and report CDK2 HIBIT PQ Max (%), with CDK2 (Homo sapiens, UniProt P24941) as system, for Cc1c(S(=O)(=O)N(C)CCCN2CCC(c3ccc4c(c3)n(C)c(=O)n4C3CCC(=O)NC3=O)CC2)ccc(Nc2nc3c(OC(C)C)c(-c4cn[nH]c4)ncn3n2)c1F (racemic)
Response: 91%

Request: Look up and report CDK2 HIBIT PQ Max (%), with CDK2 (Homo sapiens, UniProt P24941) as system, for CC(C)Oc1c(-c2cn[nH]c2)ncn2nc(Nc3ccc(S(=O)(=O)c4cccc(CN5CCN(c6ccc7c(N8CCC(=O)NC8=O)nn(C)c7c6)C(C)C5)c4)cc3F)nc12 (racemic)
Response: 94%

Request: Look up and report CDK2 HIBIT PQ Max (%), with CDK2 (Homo sapiens, UniProt P24941) as system, for Cc1cc(Nc2nc3c(OC(C)C)c(-c4cn[nH]c4)ncn3n2)c(F)cc1S(=O)(=O)N(C)CCCN1CCC(c2ccc3c(c2)n(C)c(=O)n3C2CCC(=O)NC2=O)CC1 (racemic)
Response: 86%

----------
For each entry below, report its DC50 value.
Target: CDK2 (Homo sapiens, UniProt P24941)
Construct: host or cells: HEK293
Assay: CDK2 HIBIT PQ (protein quantification), degradation
Type: cell-based
Conditions: PQ = Protein Quantification
Output spec: scalar in nM, unitless text.

Request: Read off the recorded DC50 for CC(C)Oc1c(-c2cn[nH]c2)ncn2nc(Nc3ccc(S(=O)(=O)c4cccc(N5CCN(CC6CCN(c7ccc8c(c7)CN(C7CCC(=O)NC7=O)C8=O)CC6)CC5)c4)cc3F)nc12 (racemic)
Response: 1.44

Request: Read off the recorded DC50 for CC(C)Oc1c(-c2cn[nH]c2)ncn2nc(Nc3ccc(S(=O)(=O)N(C)CCCN4CCN(c5ccc6c(c5)n(C)c(=O)n6C5CCC(=O)NC5=O)C[C@@H]4C)cc3F)nc12 (stereo partly shown)
Response: 0.1

Request: Read off the recorded DC50 for CC(C)Oc1c(-c2cn[nH]c2)ncn2nc(Nc3ccc(S(=O)(=O)N4CCC[C@@H](CN5CC[C@@H](c6ccc7c(N8CCC(=O)NC8=O)nn(C)c7c6)CC5(C)C)C4)cc3F)nc12 (single isomer, unassigned)
Response: 0.9

Request: Read off the recorded DC50 for CC(C)Oc1c(-c2cn[nH]c2)ncn2nc(Nc3ccc(S(=O)(=O)N(C)CCCN4CCC(c5cccc6c5n(C)c(=O)n6C5CCC(=O)NC5=O)CC4)cc3F)nc12 (racemic)
Response: 0.6

Request: Read off the recorded DC50 for CC(C)Oc1c(-c2cn[nH]c2)ncn2nc(Nc3ccc(S(=O)(=O)c4cccc(CC5CC(c6ccc(C(=O)NC7CCC(=O)NC7=O)cc6)C5)c4)cc3F)nc12 (racemic)
Response: 78.1

Request: Read off the recorded DC50 for CC(C)Oc1c(-c2cn[nH]c2)ncn2nc(Nc3ccc(S(=O)(=O)N4CCCC(CN5CCC(c6ccc7c(N8CCC(=O)NC8=O)nn(C)c7c6)CC5)C4)cc3F)nc12 (single isomer, unassigned) [Compound 94]
Response: 0.3

Request: Read off the recorded DC50 for CC(C)Oc1c(-c2cn[nH]c2)ncn2nc(Nc3ccc(S(=O)(=O)N4CCCC(CN5CCN(c6ccc7c(N8CCC(=O)NC8=O)nn(C)c7c6)C(C)C5)C4)cc3F)nc12 (stereo not shown)
Response: 3.2

Request: Read off the recorded DC50 for CC(C)Oc1c(-c2cn[nH]c2)ncn2nc(Nc3ccc(S(=O)(=O)N4CCCC(CN5CCC(c6ccc7c(N8CCC(=O)NC8=O)nn(C)c7c6)CC5)C4)cc3F)nc12 (single isomer, unassigned) [Compound 95]
Response: 0.5

Request: Read off the recorded DC50 for CC(C)Oc1c(-c2cn[nH]c2)ncn2nc(Nc3ccc(S(=O)(=O)c4cccc(C(C)N5CCC(c6ccc7c(N8CCC(=O)NC8=O)nn(C)c7c6)CC5)c4)cc3F)nc12 (single isomer, unassigned) [Compound 100]
Response: 2.9

Request: Read off the recorded DC50 for CC(C)Oc1c(-c2cn[nH]c2)ncn2nc(Nc3ccc(S(=O)(=O)c4cccc(CN5CCN(c6cc7c(cc6F)C(=O)N(C6CCC(=O)NC6=O)C7)CC5)c4)cc3F)nc12 (racemic)
Response: 2.25
